Reported pIC50 values for the following compounds.
Target: HDM2 (Homo sapiens)
Construct: Thioredoxin (N); made in house; host or cells: E. coli strain BL21(DE3)Rosetta
Experiment: FRET assay (HDM2 inhibition; method not described in this part)
Type: binding
Details: Table 1
Answer as the number alone; pIC50 is minus log10 of concentration in mol/L.

CC(C)c1ccnc(-c2nc3nc(C(=O)O)nc(N[C@H](C)C4CCC4)c3n2Cc2ccc(C(F)(F)F)c(F)c2)c1    8.45

Attention now shifts to the item below.
Incoming: Give reported pIC50 value for C[C@@H](Nc1nc(C(=O)O)nc2nc(-c3cccc4c3CNC4)n(Cc3ccc(C(F)(F)F)cc3)c12)C1CCC1
Outgoing: 7.29

----------
Target: HDM2 (Homo sapiens, UniProt Q00987)
Construct: Thioredoxin (N); made in house; host or cells: E. coli strain BL21(DE3)Rosetta
Sequence (Q00987 17-125): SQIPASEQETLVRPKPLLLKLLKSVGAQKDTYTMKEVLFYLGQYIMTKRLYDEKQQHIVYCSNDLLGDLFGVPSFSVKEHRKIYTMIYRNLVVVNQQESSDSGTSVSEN
Assay: FRET assay (HDM2 inhibition; method not described in this part)
Assay type: binding
Conditions: Table 2
Reported log10(IC50) values for the following compounds.
The common logarithm of IC50 in nM is what is listed.

C[C@@H](Nc1nc(C(=O)O)nc2nc(Cc3ccccc3)n(Cc3ccc(Cl)cc3)c12)C1CC1 [Example 2.43]    1.45

Incoming: Give reported log10(IC50) value for C[C@@H](Nc1nc(C(=O)O)nc2nc(-c3ccc4c(c3)CCC4)n(Cc3ccc(C(F)(F)F)cc3)c12)C1CC1 [Example 2.74]
Outgoing: 2.31

Incoming: Give reported log10(IC50) value for Cc1cccc(-c2nc3nc(C(=O)O)nc(N[C@H](C)C4CC4)c3n2Cc2ccc(C(F)(F)F)cc2)c1C [Example 2.59]
Outgoing: 2.17

Incoming: Give reported log10(IC50) value for COc1ncc(-c2nc3nc(C(=O)O)nc(N[C@H](C)C4CC4)c3n2Cc2ccc(C(F)(F)F)cc2)cc1F [Example 2.49]
Outgoing: 2.49

Incoming: Give reported log10(IC50) value for C[C@@H](Nc1nc(C(=O)O)nc2nc(-c3cnc(O)c(F)c3)n(Cc3ccc(C(F)(F)F)cc3)c12)C1CC1 [Example 2.51]
Outgoing: 3.09

Incoming: Give reported log10(IC50) value for C[C@@H](Nc1nc(C(=O)O)nc2nc(-c3cccc(F)c3)n(Cc3ccc(C(F)(F)F)cc3)c12)C1CC1 [Example 2.56]
Outgoing: 2.42

Incoming: Give reported log10(IC50) value for C[C@@H](Nc1nc(C(=O)O)nc2nc(-c3cccc(OC(F)(F)F)c3)n(Cc3ccc(C(F)(F)F)cc3)c12)C1CCC1 [Example 2.39]
Outgoing: 1.72

Incoming: Give reported log10(IC50) value for C[C@@H](Nc1nc(C(=O)O)nc2nc(-c3ccc(F)cc3F)n(Cc3ccc(C(F)(F)F)cc3)c12)C1CCC1 [Example 2.68]
Outgoing: 1.35

Incoming: Give reported log10(IC50) value for C[C@@H](Nc1nc(C(=O)O)nc2nc(-c3ccc(Cl)cc3)n(Cc3ccc(Cl)cc3)c12)C1CC1 [Example 2.9]
Outgoing: 1.64

Incoming: Give reported log10(IC50) value for CCc1cccc(-c2nc3nc(C(=O)O)nc(N[C@H](C)C4CC4)c3n2Cc2ccc(C(F)(F)F)cc2)c1 [Example 2.16]
Outgoing: 2.26

Incoming: Give reported log10(IC50) value for C[C@@H](Nc1nc(C(=O)O)nc2nc(C3CC3)n(Cc3ccc(Cl)cc3)c12)C1CC1 [Example 2.42]
Outgoing: 2.42

Incoming: Give reported log10(IC50) value for C[C@@H](Nc1nc(C(=O)O)nc2nc(-c3cnn(C)c3)n(Cc3ccc(C(F)(F)F)cc3)c12)C1CC1 [Example 2.35]
Outgoing: 2.71

Incoming: Give reported log10(IC50) value for COc1ccc(-c2nc3nc(C(=O)O)nc(N[C@H](C)C4CC4)c3n2Cc2ccc(C(F)(F)F)cc2)cc1Cl [Example 2.66]
Outgoing: 2.05

Incoming: Give reported log10(IC50) value for COc1ccc(-c2nc3nc(C(=O)O)nc(N[C@H](C)C4CC4)c3n2Cc2ccc(C(F)(F)F)cc2)cn1 [Example 2.48]
Outgoing: 2.83

Incoming: Give reported log10(IC50) value for C[C@@H](Nc1nc(C(=O)O)nc2nc(-c3ccc4ccccc4c3)n(Cc3ccc(C(F)(F)F)cc3)c12)C1CC1 [Example 2.60]
Outgoing: 2.49

Incoming: Give reported log10(IC50) value for Cc1cccc(-c2nc3nc(C(=O)O)nc(N[C@H](C)C4CC4)c3n2Cc2ccc(Cl)cc2)c1 [Example 2.6]
Outgoing: 2.32

----------
Biological target: HDM2 (Homo sapiens)
Construct: Thioredoxin (N); made in house; host or cells: E. coli strain BL21(DE3)Rosetta
Experiment: HDM2 FRET assay (inhibition of binding of FITC labeled p53-pocket peptide to HDM2)
Details: Table 19; read-out: FRET IC50
PROPERTY: IC50 (nM)
Just the number please, in nM, no unit attached.

Use the examples below as a reference point.
C[C@H]1CC[C@H](Cn2c(SC3CCCC3)nc3nc(-c4n[nH]c(=O)o4)nc(-c4cncc(Cl)c4)c32)CC1    3.05
C[C@@H](Nc1nc(-c2noc(=O)[nH]2)nc2nc(S(=O)(=O)c3ccccc3)n(C[C@H]3CC[C@H](C)CC3)c12)C1CCC1    0.943

Attention now shifts to the item below.
Incoming: Give reported IC50 value for C[C@@H](Nc1nc(-c2noc(=O)[nH]2)nc2nc([S+]([O-])c3ccccc3)n(C[C@H]3CC[C@H](C)CC3)c12)C1CCC1 (stereo partly drawn)
Outgoing: 1.77

----------
Target: HDM2 (Homo sapiens)
Construct: Thioredoxin (N); made in house; host or cells: E. coli strain BL21(DE3)Rosetta
Assay: HDM2 FRET assay (inhibition of binding of FITC labeled p53-pocket peptide to HDM2)
Settings: Table 6; read-out: FRET IC50
pIC50: −log10 of the molar value.
Binary classification by pIC50, with 6 as an inclusive lower bound for rule met; all other cases are rule not met.

Some solved entries appear below for comparison.
Cc1cccc(-c2nc3nc(C(=O)O)nc(N[C@@H](C)c4ccc(Cl)cc4)c3n2Cc2ccc(C(F)(F)F)cc2)c1 [Example 6.46]    rule not met
CC(C)c1ccnc(-c2nc3nc(C(=O)O)nc(N[C@H](c4ccccc4)C4CCC4)c3n2Cc2ccc(C(F)(F)F)cc2)c1 [Example 6.58]    rule met
Cc1cccc(-c2nc3nc(C(=O)O)nc(N[C@@H](C4CC4)C(F)(F)F)c3n2Cc2ccc(C(F)(F)F)cc2)c1 [Example 6.53]    rule met
Cc1cccc(-c2nc3nc(C(=O)O)nc(NC4CCCCC4)c3n2Cc2ccc(C(F)(F)F)cc2)c1 [Example 6.28]    rule met
Cc1cccc(-c2nc3nc(C(=O)O)nc(N4CCCC4C4CCC4)c3n2Cc2ccc(C(F)(F)F)cc2)c1 (centres unmarked) [Example 6.92]    rule met

Incoming: Test whether the compound C[C@@H](Nc1nc(C(=O)O)nc2nc(-c3ccc4sccc4c3)n(Cc3ccc(C(F)(F)F)cc3)c12)C1CCC1 [Example 6.14] records pIC50 of 6 or higher.
Outgoing: rule met

Incoming: Test whether the compound Cc1cccc(-c2nc3nc(C(=O)O)nc(NC4CCC(CNC(=O)OC(C)(C)C)CC4)c3n2Cc2ccc(C(F)(F)F)cc2)c1 (centres unmarked) [Example 6.35] records pIC50 of 6 or higher.
Outgoing: rule not met

Incoming: Test whether the compound Cc1cccc(-c2nc3nc(C(=O)O)nc(N[C@H](C)C(C)(C)C)c3n2Cc2ccc(C(F)(F)F)cc2)c1 [Example 6.47] records pIC50 of 6 or higher.
Outgoing: rule met

Incoming: Test whether the compound Cc1cccc(-c2nc3nc(C(=O)O)nc(NC(C)C(C)C)c3n2Cc2ccc(C(F)(F)F)cc2)c1 (centres unmarked) [Example 6.73] records pIC50 of 6 or higher.
Outgoing: rule met

Incoming: Test whether the compound Cc1cccc(-c2nc3nc(C(=O)O)nc(N4CCCCC4C4CCC4)c3n2Cc2ccc(C(F)(F)F)cc2)c1 (centres unmarked) [Example 6.95] records pIC50 of 6 or higher.
Outgoing: rule met

Incoming: Test whether the compound CC[C@@H](Nc1nc(C(=O)O)nc2nc(-c3cc(C(C)C)ccn3)n(Cc3ccc(C(F)(F)F)cc3)c12)C1CCC1 [Example 6.55] records pIC50 of 6 or higher.
Outgoing: rule met

Incoming: Test whether the compound Cc1cccc(-c2nc3nc(C(=O)O)nc(N[C@H](C)C4CCCCC4)c3n2Cc2ccc(C(F)(F)F)cc2)c1 [Example 6.42] records pIC50 of 6 or higher.
Outgoing: rule met

Incoming: Test whether the compound Cc1cccc(-c2nc3nc(C(=O)O)nc(N[C@@H](C)c4cccc(Cl)c4)c3n2Cc2ccc(C(F)(F)F)cc2)c1 [Example 6.26] records pIC50 of 6 or higher.
Outgoing: rule not met
